For each of the binders below, state its % Inhibition (N = 1) of VEGF-C-mediated KDR activity, antibody 1 nM.
Target: human KDR on cells (human, UniProt P35968 20-1356)
Sequence (P35968 20-1356): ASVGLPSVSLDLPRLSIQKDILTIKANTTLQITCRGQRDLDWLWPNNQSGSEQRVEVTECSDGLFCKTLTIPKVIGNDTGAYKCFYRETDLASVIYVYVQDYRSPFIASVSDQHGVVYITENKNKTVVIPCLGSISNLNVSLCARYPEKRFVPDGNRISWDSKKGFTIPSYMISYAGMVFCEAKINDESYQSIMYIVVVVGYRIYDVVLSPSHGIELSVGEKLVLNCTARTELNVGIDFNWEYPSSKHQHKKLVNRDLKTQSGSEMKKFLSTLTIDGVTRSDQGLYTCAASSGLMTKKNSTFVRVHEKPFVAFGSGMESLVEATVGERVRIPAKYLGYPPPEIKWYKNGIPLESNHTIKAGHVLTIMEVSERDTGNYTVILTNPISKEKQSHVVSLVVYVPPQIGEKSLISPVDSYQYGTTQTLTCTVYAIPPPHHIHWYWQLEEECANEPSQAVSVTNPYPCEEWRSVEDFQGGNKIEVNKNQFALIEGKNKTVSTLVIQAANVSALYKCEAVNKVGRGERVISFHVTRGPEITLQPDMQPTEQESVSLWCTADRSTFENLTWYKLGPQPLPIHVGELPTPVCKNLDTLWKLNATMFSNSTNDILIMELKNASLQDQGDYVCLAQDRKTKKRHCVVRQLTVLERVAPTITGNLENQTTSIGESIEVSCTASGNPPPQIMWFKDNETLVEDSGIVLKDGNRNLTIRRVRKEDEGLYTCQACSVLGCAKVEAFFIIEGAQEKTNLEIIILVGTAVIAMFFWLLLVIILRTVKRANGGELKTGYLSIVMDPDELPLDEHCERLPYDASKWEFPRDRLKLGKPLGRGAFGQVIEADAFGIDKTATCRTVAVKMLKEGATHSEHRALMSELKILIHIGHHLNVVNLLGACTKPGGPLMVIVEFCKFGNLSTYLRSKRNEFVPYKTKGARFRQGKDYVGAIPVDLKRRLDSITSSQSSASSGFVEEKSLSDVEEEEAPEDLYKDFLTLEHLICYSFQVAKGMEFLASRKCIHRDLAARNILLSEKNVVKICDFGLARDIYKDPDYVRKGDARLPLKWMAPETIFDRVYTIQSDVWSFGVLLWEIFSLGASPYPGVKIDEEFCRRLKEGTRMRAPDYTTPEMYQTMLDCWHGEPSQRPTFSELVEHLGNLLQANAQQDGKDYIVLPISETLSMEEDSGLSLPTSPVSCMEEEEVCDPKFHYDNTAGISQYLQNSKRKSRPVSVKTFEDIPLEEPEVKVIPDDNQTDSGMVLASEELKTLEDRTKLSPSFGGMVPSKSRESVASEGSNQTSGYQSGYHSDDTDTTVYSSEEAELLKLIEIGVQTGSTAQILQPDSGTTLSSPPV
Experiment: cell-based or functional assay
Numbers only, in %.

| BINDER | MEASURED RESULT |
| --- | --- |
| 27A3 (antibody, V domains shown) VH: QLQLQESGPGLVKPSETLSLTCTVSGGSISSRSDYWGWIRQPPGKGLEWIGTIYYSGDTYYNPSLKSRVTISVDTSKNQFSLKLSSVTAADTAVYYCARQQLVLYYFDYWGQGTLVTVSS VL: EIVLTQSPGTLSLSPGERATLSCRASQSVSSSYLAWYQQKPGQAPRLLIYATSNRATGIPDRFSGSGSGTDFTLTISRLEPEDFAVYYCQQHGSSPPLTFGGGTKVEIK | 40 |
| 21H6 (antibody, V domains shown) VH: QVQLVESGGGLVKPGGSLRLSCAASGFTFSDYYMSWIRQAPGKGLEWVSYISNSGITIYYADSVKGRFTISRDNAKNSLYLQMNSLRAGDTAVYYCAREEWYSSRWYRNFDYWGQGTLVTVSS VL: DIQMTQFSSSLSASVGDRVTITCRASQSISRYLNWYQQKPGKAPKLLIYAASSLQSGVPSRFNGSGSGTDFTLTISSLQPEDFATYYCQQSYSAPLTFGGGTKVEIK | 23 |
| 33E1 (antibody, V domains shown) VH: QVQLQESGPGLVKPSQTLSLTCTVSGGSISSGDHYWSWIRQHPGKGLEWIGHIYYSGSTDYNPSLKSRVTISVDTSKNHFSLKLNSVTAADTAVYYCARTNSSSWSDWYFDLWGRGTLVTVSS VL: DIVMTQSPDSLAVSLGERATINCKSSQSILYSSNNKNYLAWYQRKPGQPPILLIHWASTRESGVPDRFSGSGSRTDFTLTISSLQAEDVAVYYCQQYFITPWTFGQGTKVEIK | 29 |
| 22B8 (antibody, V domains shown) VH: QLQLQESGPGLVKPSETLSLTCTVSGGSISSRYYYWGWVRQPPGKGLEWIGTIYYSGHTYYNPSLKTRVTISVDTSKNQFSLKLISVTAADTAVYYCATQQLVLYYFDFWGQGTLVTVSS VL: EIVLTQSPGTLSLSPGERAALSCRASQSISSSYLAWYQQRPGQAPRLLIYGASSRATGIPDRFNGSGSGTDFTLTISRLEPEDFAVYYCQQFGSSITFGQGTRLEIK | 38 |

Next binder, please.
Record 33C3 (antibody, V domains shown, Purified fully human monoclonal antibody from XenoMouse hybridoma (IgG2 or IgG4 strains); also called MAb 33C3) VH: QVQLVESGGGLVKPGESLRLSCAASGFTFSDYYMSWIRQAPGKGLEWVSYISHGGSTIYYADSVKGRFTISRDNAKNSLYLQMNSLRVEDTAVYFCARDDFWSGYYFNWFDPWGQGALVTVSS VL: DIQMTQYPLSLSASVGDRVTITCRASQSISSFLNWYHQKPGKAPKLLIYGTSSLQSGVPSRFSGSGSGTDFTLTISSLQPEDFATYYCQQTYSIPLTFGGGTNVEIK . Reported % Inhibition (N = 1) of VEGF-C-mediated KDR activity, antibody 1 nM: 71
